A collection of molecules and their measured pIC50
targetOfAssay: FGFR2 (Homo sapiens (Human))
experimentSummary: FGFR2 Biochemical Caliper Assay
pIC50: −log10 of the molar value.

Here is how some molecules turned out for pIC50.
molecule | targetOfAssay | pIC50
C=C(C)C(=O)Nc1ccc(-c2c(-c3ccc(NC(=O)C4CCCC4)cc3)c3c(N)ncnc3n2C)cc1 [Example 224] | FGFR2 (Homo sapiens (Human)) | > 7.00
C=CC(=O)N1CCC(c2c(-c3ccc(Oc4ccccn4)c(OC)c3)c3c(N)ncnc3n2C)C1 (stereo not shown) [Example 675] | FGFR2 (Homo sapiens (Human)) | 6.00 to 6.60
Cc1cccc(Oc2ccc(-c3c(-c4ccc(NC#N)cc4)n(C)c4ncnc(N)c34)cc2)n1 [Example 476] | FGFR2 (Homo sapiens (Human)) | > 7.00
C=CC(=O)N1CCC(c2c(-c3ccc(NC4CCCC4)cc3)c3c(N)ncnc3n2C)C1 (stereo not shown) [Example 771] | FGFR2 (Homo sapiens (Human)) | 4.00 to 6.00
C=CC(=O)N1CCC(n2ncc(-c3c(-c4ccc(Oc5cccc(C)n5)c(OC)c4)c4c(N)ncnc4n3C)c2C)CC1 [Example 673] | FGFR2 (Homo sapiens (Human)) | > 7.00
C=CC(=O)Nc1ccc(-c2c(-c3ccc(C(=O)N4CCCC4)cc3)c3c(N)ncnc3n2C)c(F)c1 [Example 213] | FGFR2 (Homo sapiens (Human)) | > 7.00

// switching to the query molecule
Recorded pIC50 for C=C(C)C(=O)Nc1ccc(-c2c(-c3ccc(C(=O)NCc4ncon4)cc3)c3c(N)ncnc3n2C)cc1 [Example 282] with FGFR2 (Homo sapiens (Human)), please? 6.60 to 7.00

----------
targetOfAssay: FGFR2 (Homo sapiens (Human))
experimentSummary: Biochemical FGFR2 Caliper assay
endpointName: IC50

# count of solved cases: 3
structureString | IC50
C=C(C)C(=O)Nc1ccc(-c2c(-c3ccc(-n4cc(CC)cn4)nc3)c3c(N)ncnc3n2C)cc1 | 250 to 1000 nM
C#Cc1cc(CO)c(-c2c(-c3ccc(Oc4nccc(C)n4)c(F)c3)c3c(N)ncnc3n2C)cn1 | < 100 nM
C=C(C)c1nc(-c2ccc(-c3c(-c4ccccc4)c4c(N)ncnc4n3C)cc2)no1 | < 100 nM

# query: IC50 | item C=C(C)C(=O)Nc1ccc(-c2c(-c3ccc(-c4cccc(O)c4)nc3)c3c(N)ncnc3n2C)cc1 | system: FGFR2 (Homo sapiens (Human)) 1000 to 100000 nM

----------
targetOfAssay: FGFR2 (Homo sapiens (Human), UniProt P21802)
Sequence (P21802 22-821): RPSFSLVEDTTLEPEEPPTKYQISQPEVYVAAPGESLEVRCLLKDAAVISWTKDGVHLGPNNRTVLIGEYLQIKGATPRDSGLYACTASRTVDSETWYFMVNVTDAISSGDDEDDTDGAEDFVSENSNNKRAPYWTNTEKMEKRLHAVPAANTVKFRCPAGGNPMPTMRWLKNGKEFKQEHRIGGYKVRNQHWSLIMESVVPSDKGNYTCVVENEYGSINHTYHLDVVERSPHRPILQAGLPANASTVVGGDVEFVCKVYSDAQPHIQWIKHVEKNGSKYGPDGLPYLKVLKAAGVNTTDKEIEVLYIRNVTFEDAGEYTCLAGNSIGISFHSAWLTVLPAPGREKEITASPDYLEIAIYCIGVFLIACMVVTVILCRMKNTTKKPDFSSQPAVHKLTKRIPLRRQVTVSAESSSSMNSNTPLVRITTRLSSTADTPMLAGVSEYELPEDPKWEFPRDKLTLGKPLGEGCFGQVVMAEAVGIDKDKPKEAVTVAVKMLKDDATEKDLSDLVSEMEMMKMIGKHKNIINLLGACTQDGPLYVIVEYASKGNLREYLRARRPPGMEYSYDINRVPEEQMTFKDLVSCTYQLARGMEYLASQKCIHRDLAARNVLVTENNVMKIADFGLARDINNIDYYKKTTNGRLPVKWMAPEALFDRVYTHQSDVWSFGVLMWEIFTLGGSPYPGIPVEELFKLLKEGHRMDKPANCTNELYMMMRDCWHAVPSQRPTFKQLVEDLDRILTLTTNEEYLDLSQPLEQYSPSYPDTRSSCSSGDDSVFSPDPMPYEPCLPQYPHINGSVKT
experimentSummary: Biochemical FGFR2 Caliper assay
pIC50: −log10 of the molar value.
endpointName: pIC50

compound | pIC50
Cc1ccnc(Oc2ccc(-c3c(-c4ccc(NC(=O)/C=C/CN(C)C)cc4)n(C)c4ncnc(N)c34)cc2F)n1 | > 7.00
C=CS(=O)(=O)N1CC[C@H](c2c(-c3ccc(C(=O)N4CCCC4)cc3)c3c(N)ncnc3n2C)C1 (single isomer, unassigned) | 6.00 to 6.60
C#Cc1cc(C)c(-c2c(-c3ccc(Oc4nccc(C)n4)c(F)c3)c3c(N)ncnc3n2C)c(C)n1 | > 7.00
C#Cc1ncc(-c2c(-c3ccc(Oc4nccc(C)n4)cc3)c3c(N)ncnc3n2C)cn1 [Example 1117] | 6.60 to 7.00
C#Cc1cc(-c2c(-c3ccc(Oc4nccc(C)n4)cc3)c3c(N)ncnc3n2C)n(C)n1 | 4.00 to 6.00

# get_value(readout='pIC50', item= C=CC(=O)Nc1ccc(-c2c(C3=CC[C@@H](C(=O)N4CCCC4)CC3)c3c(N)ncnc3n2C)c(C)c1 (single isomer, unassigned) ) > 7.00

Looking for the measured pIC50 of C=C(C)C(=O)Nc1ccc(-c2c(C3=CC[C@H](C(=O)N4CCCC45COC5)CC3)c3c(N)ncnc3n2C)c(F)c1 , can you help? 6.00 to 6.60

What measured pIC50 goes with C#Cc1cc(C)c(-c2c(-c3ccc(Oc4nccc(C)n4)c(F)c3)c3c(N)ncnc3n2C(C)C)cn1 ? > 7.00

Endpoint output: pIC50 of C=C(C)C(=O)Nc1ccc(-c2c(-c3ccc(C(=O)NCC4CCC4)c(OC)n3)c3c(N)ncnc3n2C)cc1 . Value? > 7.00

Any idea what its pIC50 is? The compound is C#Cc1ncc(-c2c(-c3ccc(Oc4nccc(C)n4)cc3)c3c(N)ncnc3n2C)c(C)n1 4.00 to 6.00

Report pIC50 for C#Cc1cc(C)c(-c2c(C3=CC[C@@]4(CC3)Cc3ccc(C)nc3C4=O)c3c(N)ncnc3n2C)cn1 please. 6.60 to 7.00

Name the recorded pIC50 for C=C(C)C(=O)Nc1ccc(-c2c(C3=COCCC3)c3c(N)ncnc3n2C)cc1 . 4.00 to 6.00

Looking for the measured pIC50 of C=C(C)C(=O)Nc1ccc(-c2c(-c3ccc4c(c3)COCC4)c3c(N)ncnc3n2C)cc1 , can you help? 4.00 to 6.00

Report pIC50 for C=CC(=O)N[C@@H]1CCc2ccc(-c3c(-c4ccc(Oc5nccc(C)n5)cc4)c4c(N)ncnc4n3C)cc2C1 (single isomer, unassigned) please. 4.00 to 6.00

Looking for the measured pIC50 of C=C(C)C(=O)Nc1ccc(-c2c(-c3ccc(C(=O)NCC4(F)CCC4)c(OC)c3)c3c(N)ncnc3n2C)cc1 , can you help? 6.00 to 6.60

----------
targetOfAssay: FGFR2 (Homo sapiens (Human), UniProt P21802)
experimentSummary: Biochemical FGFR2 Caliper assay
Here the recorded IC50 is given for each entry.

Previously resolved entries follow.
compound | endpointName | observedValue
C#Cc1cc(C)c(-c2c(-c3ccc(Oc4cccc(C)n4)c(F)c3)c3c(N)ncnc3n2C)cn1 | IC50 | < 100 nM
C=CC(=O)Nc1ccc(-c2c(-c3cn[nH]c3)c3c(N)ncnc3n2C)cc1 | IC50 | < 100 nM

# query: IC50 of entry Cc1ccnc(Oc2ccc(-c3c(C4=CCN(C(=O)[C@H]5CO5)C4)n(C)c4ncnc(N)c34)cc2)n1 (single isomer, unassigned) 100 to 250 nM

# lookup: IC50 of C=C(C)C(=O)Nc1ccc(-c2c(-c3ccc4c(c3)NC(=O)C4(C)C)c3c(N)ncnc3n2C)cc1 1000 to 100000 nM

----------
targetOfAssay: FGFR2 (Homo sapiens (Human), UniProt P21802)
experimentSummary: Biochemical FGFR2 Caliper assay
pIC50: −log10 of the molar value.
pIC50 for assorted molecules

# annotated cases, reported pIC50 shown
molecule | observedValue
C=CC(=O)N1CCC(n2cc(-c3c(-c4ccc(C(=O)NC5CCOC5)cc4)c4c(N)ncnc4n3C)cn2)CC1 (stereo not drawn) [Example 845] | 6.00 to 6.60
C=C(C)C(=O)Nc1ccc(-c2c(C3=CC[C@@H](C(=O)N4CC5CC4C5)CC3)c3c(N)ncnc3n2C)cc1 [Example 996] | 6.00 to 6.60
C=C(C)C(=O)Nc1ccc(-c2c(-c3cnc(-c4ccc(OC)cc4)s3)c3c(N)ncnc3n2C)cc1 [Example 1419] | > 7.00
C=CC(=O)N[C@H]1C[C@@H]1c1c(-c2ccc(C(=O)N3CCCC3)cc2)c2c(N)ncnc2n1C (single isomer, unassigned) [Example 972] | 4.00 to 6.00
Cc1ccnc(Oc2ccc(-c3c([C@@H]4CCN(C(=O)CCl)C4)n(C)c4ncnc(N)c34)cc2)n1 (single isomer, unassigned) [Example 875] | 6.00 to 6.60

Would you kindly look at the next entry?
Request the reported pIC50 associated with C=C(C)C(=O)Nc1ccc(-c2c(N3CC[C@@H](C(=O)N4CCCC4)CC3=O)c3c(N)ncnc3n2C)cc1 (single isomer, unassigned) [Example 925] > 7.00

----------
targetOfAssay: FGFR2 (Homo sapiens (Human), UniProt P21802)
experimentSummary: FGFR2 Biochemical Caliper Assay
endpointName: IC50

compound | observedValue
C=CC(=O)N1CCC(c2c(C3=CCC(CO)CC3)c3c(N)ncnc3n2C)C1 (stereo not shown) | 1 to 100 µM
C=C(C)C(=O)Nc1ccc(-c2[nH]c3ncnc(N)c3c2-c2ccc(Oc3cccc(C)n3)cc2)cc1 | < 0.1 µM
C=C(C)C(=O)Nc1ccc(-c2c(-c3ccc(C(=O)NC4CC(O)C4)cc3)c3c(N)ncnc3n2C)cc1 (stereo not shown) | 0.25 to 1 µM

Item C=CC(=O)N1CCC(n2cc(-c3c(-c4cc(OC)c(Cl)cc4Cl)c4c(N)ncnc4n3C)cn2)CC1 with FGFR2 (Homo sapiens (Human), UniProt P21802) - IC50? 1 to 100 µM

Record lookup: for FGFR2 (Homo sapiens (Human), UniProt P21802), what IC50 belongs to C=CC(=O)N1CCC(c2c(-c3ccc(Oc4ccc(Cl)c(C)n4)cc3)c3c(N)ncnc3n2C)C1 (stereo not shown) ? 1 to 100 µM

Given the entry C=C(C)C(=O)Nc1ccc(-c2c(-c3ccc(S(=O)(=O)NC4CCC4)cc3)c3c(N)ncnc3n2C)cc1 , what IC50 was observed with FGFR2 (Homo sapiens (Human), UniProt P21802)? 0.25 to 1 µM

# get_value(readout= IC50, system= FGFR2 (Homo sapiens (Human), UniProt P21802)) for Cn1c(-c2ccc(NC(=O)C3CO3)cc2)c(-c2ccc(C(=O)N3CCCC3)cc2)c2c(N)ncnc21 (stereo not shown) 0.1 to 0.25 µM
